Species: Homo sapiens
Experiment: Activation of wild type N-terminal Flag-tagged E6AP (unknown origin) mediated UbxD8 substrate ubiquitination in presence of Uba1/Ubch7 at 10 to 100 uM preincubated for 30 mins followed by UB addition incubated for 2 hrs by SDS PAGE based Western blot analysis
Conditions: dose 10-100 µM, time 2.5 hrs
The source made the active and inactive calls. The rule behind the calls is not given here.
quantity: Activity

- chemical_structure: "C[C@H]1CN(C(=O)Cc2ccc3c(c2)OCO3)CC(=O)N[C@@H](Cc2ccccc2)CN(C(=O)Cc2ccc3ccccc3c2)CC(=O)N[C@@H](CCC(=O)O)CN(C(=O)CC2CC2)CC(=O)N[C@@H](Cc2ccccc2)CN(CC(N)=O)C(=O)CCSCc2ccc(cc2)C(=O)N1"
  assay_result: "inactive"
- chemical_structure: "CC(C)C[C@H]1CN(CC(N)=O)C(=O)CCSCc2ccc(cc2)C(=O)N[C@@H](Cc2ccccc2)CN(C(=O)Cc2ccc3ccccc3c2)CC(=O)N[C@@H](CC(C)C)CN(C(=O)CCC2CCCCC2)CC(=O)N[C@@H](Cc2ccccc2)CN(C(=O)Cc2ccc3c(c2)OCO3)CC(=O)N1"
  assay_result: "inactive"

---

Species: Homo sapiens
Experiment: Activation of wild type N-terminal Flag-tagged E6AP HECT domain (unknown origin) self-ubiquitination assessed as increase in formation of polyubiquitinated HECT in presence of wild type HA-tagged UB at 10 to 100 uM preincubated for 30 mins followed by UB addition incubated for 2 hrs by SDS PAGE based Western blot analysis
Conditions: dose 10-100 µM, time 150.0 min
Active and inactive are the calls of the source. The calls are words filed in the database; no cut-off is given here.
quantity: Activity

- chemical_structure: "C[C@H]1CN(C(=O)Cc2ccc3c(c2)OCO3)CC(=O)N[C@@H](Cc2ccccc2)CN(C(=O)Cc2ccc3ccccc3c2)CC(=O)N[C@@H](CCC(=O)O)CN(C(=O)CC2CC2)CC(=O)N[C@@H](Cc2ccccc2)CN(CC(N)=O)C(=O)CCSCc2ccc(cc2)C(=O)N1"
  quantity: "Activity"
  assay_result: "inactive"
- chemical_structure: "CC(C)C[C@H]1CN(CC(N)=O)C(=O)CCSCc2ccc(cc2)C(=O)N[C@@H](C)CN(C(=O)Cc2ccc3ccccc3c2)CC(=O)N[C@@H](CC(C)C)CN(C(=O)CCc2ccccc2)CC(=O)N[C@@H](Cc2ccccc2)CN(C(=O)Cc2ccc3c(c2)OCO3)CC(=O)N1"
  quantity: "Activity"
  assay_result: "inactive"
